Target: recombinant human GSK3 enzyme (GSK-3β) (Homo sapiens)
Experiment: Measurement of the inhibition of GSK-3β (Kinase-Glo luminometric assay)
Conditions: 25 μM substrate, 1 μM ATP, 30 min at 30 °C
measured.attribute: pIC50
Field pIC50 (float): negative decimal logarithm of the concentration in molar.

CCCCCCCC(=O)NNC(=O)c1c(O)c2cc(Cl)ccc2n(CC)c1=O : 5.03
CCCCCCCC(=O)NNC(=O)c1c(O)c2cc(Br)ccc2n(CC)c1=O : 5.13
CCCCCCCCCCCC(=O)NNC(=O)c1c(O)c2ccc(Cl)cc2n(Cc2ccccc2)c1=O : 5.22
CCCCCCCCCCCC(=O)N(Cc1ccccc1)NC(=O)c1c(O)c2ccccc2n(Cc2ccccc2)c1=O : 5.16
CCCCCCCCCCCC(=O)NNC(=O)c1c(O)c2cc(Br)ccc2n(CC)c1=O : 5.70

Query: pIC50; subject: CCCCCCCC(=O)NNC(=O)c1c(O)c2ccc(Cl)cc2n(CC)c1=O 5.32

Any idea what its pIC50 is? The molecule is CCCCCCCCCCCC(=O)NNC(=O)c1c(O)c2ccccc2n(Cc2ccccc2)c1=O 5.26

----------
Target: recombinant human GSK3 enzyme (GSK-3β) (Homo sapiens, UniProt P49841)
Assay: Measurement of the inhibition of GSK-3β (Kinase-Glo luminometric assay)
Conditions: 25 μM substrate, 1 μM ATP, 30 min at 30 °C
measured.attribute: pIC50
Convention used: pIC50 is expressed as -log10 of the molar concentration.

Reference set (8 entries):
CCCCCCCCCCCC(=O)NNC(=O)c1c(O)c2cc(Cl)ccc2n(CC)c1=O : 5.50
CCCCCCCCCCCC(=O)NNC(=O)c1c(O)c2ccc(Cl)cc2n(C)c1=O : 5.39
CCCCCCCC(=O)NNC(=O)c1c(O)c2cc(Cl)ccc2n(C)c1=O : 5.07
CCCCCCCC(=O)NNC(=O)c1c(O)c2cc(Br)ccc2n(C)c1=O : 5.20
CCCCCCCC(=O)NNC(=O)c1c(O)c2ccc(Cl)cc2n(C)c1=O : 5.18
CCCCCCCCCCCC(=O)NNC(=O)c1c(O)c2cc(Cl)ccc2n(C)c1=O : 5.23
CCCCCCCCCCCC(=O)NNC(=O)c1c(O)c2ccccc2n(C)c1=O : 5.13
CCCCCCCCCCCC(=O)NNC(=O)c1c(O)c2ccc(Cl)cc2n(CC)c1=O : 5.61

With those in mind, consider the next molecule.
Requested read-out: pIC50. Entry: CCCCCCCCCCCC(=O)NNC(=O)c1c(O)c2ccccc2n(CC)c1=O 5.55

----------
Biological target: recombinant human GSK3 enzyme (GSK-3β) (Homo sapiens)
Experiment: Measurement of the inhibition of GSK-3β (Kinase-Glo luminometric assay)
Type: biochemical
Details: 25 μM substrate, 1 μM ATP, 30 min at 30 °C
# Lookup of reported pIC50 keyed by entry
// scale note: pIC50 = -log10(conc_M); give the bare number

CCCCCCCCCCCC(=O)NNC(=O)c1c(O)c2ccccc2n(CC2CC2)c1=O [Compound 45] : 5.28
CCCCCCCCCCCC(=O)NNC(=O)c1c(O)c2cc(Br)ccc2n(C)c1=O [Compound 50] : 5.37
CCCCCCCC(=O)NNC(=O)c1c(O)c2ccccc2n(C)c1=O [Compound 3] : 5.06

# input for lookup
# query: pIC50 of entry CCCCCCCC(=O)NNC(=O)c1c(O)c2ccc(Cl)cc2n(Cc2ccccc2)c1=O [Compound 61] 5.22
